Tested on: NCI-H226 lung
Test: NCI-60 one-dose screen, 48 h
Conditions: 10 µM unless noted
This is part of a sample that, as a whole, favours compounds with a hit. Of some 83,000 tested, about 20% had one in any assay. Active and inactive are the calls of the source. The calls were made as follows: active = growth percent below 10; inactive = the rest.
Respond with a class label; see Y = active, N = inactive

1) CSc1nc2[nH]ncc2c(=O)[nH]1 : N
2) CC(C)N(C(=O)c1ccccc1)C(C)C : N
3) CCC1CCC(C)NC1 (stereo not given) : N

Please indicate how the test categorized COc1nc(Nc2cccc(C(F)(F)F)c2)nc(OC)n1 .
N

Please indicate how the test categorized CC(CCC#N)(CCC#N)C(=O)c1ccccc1 .
N

Please indicate how the test categorized C=CCC(O)C=C (stereo not given) .
N

Please indicate how the test categorized C(=C\c1ccncc1)/c1ccncc1 .
N

Please indicate how the test categorized COc1cccc(C(=O)O)c1OC .
N

Please indicate how the test categorized COC1OC(C(COC(C)=O)OC(C)=O)C(OC(C)=O)C(OC(C)=O)C1OC(C)=O (stereo not given) .
N

Please indicate how the test categorized CC1CCC(C(C)(C)[N+](C)(C)C)CC1 (stereo not given) .
N

Please indicate how the test categorized CCCNS(=O)(=O)c1ccc(Cl)cc1 .
N

Please indicate how the test categorized CCCCCCCCCCC(=O)CCCCCCCCCC .
N

Please indicate how the test categorized CN(C(=S)S(=O)(=O)C12CC3CC(CC(C3)C1)C2)c1ccccc1 .
N

Please indicate how the test categorized O=S(=O)(O)c1cccc2cccnc12 .
N

Please indicate how the test categorized C=CC1=NC(C)(C)CC(C)O1 (stereo not given) .
N

Please indicate how the test categorized O=Cc1c(O)c2ccccc2[nH]c1=O .
N

Please indicate how the test categorized O=[N+]([O-])c1c(Cl)ncnc1Cl .
N

Please indicate how the test categorized N#Cc1ccc(OC(=O)Nc2c(Cl)cc(Cl)cc2Cl)cc1 .
N

Please indicate how the test categorized C=C1C(=O)C2CCN1CC2 .
N

Please indicate how the test categorized Cc1nc(O)cc(=O)[nH]1 .
N

Please indicate how the test categorized O=[N+]([O-])c1c(O)c(CNCCCO)cc(CNCCCO)c1O .
N

Please indicate how the test categorized CCOC(=O)C(CCC#N)(CCC#N)C(=O)OCC .
N

Please indicate how the test categorized CC(=O)OC/C(C)=C\CC(C)COC(C)=O (stereo not given) .
N

Please indicate how the test categorized C=C(OC(C)=O)c1ccccc1 .
N

Please indicate how the test categorized CCCC(OC(C)=O)c1ccc2c(c1)OCO2 (stereo not given) .
N

Please indicate how the test categorized S=c1nc(-c2ccccn2)c(-c2ccccn2)n[nH]1 .
N

Please indicate how the test categorized CCC(C)C1CCC(O)CC1 (stereo not given) .
N

Please indicate how the test categorized NC(CSSCC(N)C(=O)O)C(=O)O (stereo not given) .
Y

Please indicate how the test categorized CCOC(=O)C(=O)CC(=O)c1ccccc1 .
N

Please indicate how the test categorized CC(=O)NC(CCc1ccc(Cl)c(Cl)c1)c1cccc(O)c(=O)c1 (stereo not given) .
Y

Please indicate how the test categorized CCCCCC(=O)OCCC1CCCCC1 .
N

Please indicate how the test categorized C=C(C)COc1ccc(C(C)(C)C)cc1 .
N

Please indicate how the test categorized Cc1ccc(S(=O)(=O)Oc2ccc3sc4c(CO)ccc(NCCN(C)C)c4c(=O)c3c2)cc1 .
Y
